# Format: in vivo, rat
# condition_parameters: male, SD, rat, plasma, po, 25 mg/kg
measurement_label: Tmax (min)

• O=C(/C=C/c1ccc(O)c(O)c1)O[C@@H]1C[C@](O)(C(=O)O)C[C@@H](O)[C@H]1O = 13.8

---

# protocol_notes: In vitro Caco-2 cell monolayer transport, apical-to-basolateral
# Format: in vitro ADME, human
# condition_parameters: human, Caco-2
measurement_label: Papp A→B at 4 h (×10⁻⁶ cm/s)

- O=C(/C=C/c1ccc(O)c(O)c1)O[C@@H]1C[C@](O)(C(=O)O)C[C@@H](O)[C@H]1O [Chlorogenic acid]: 19

---

# Format: in vivo, rat
# condition_parameters: male, SD, rat, plasma, po, 10 ml/kg
measurement_label: Cmax (ng/mL)

* O=C(/C=C/c1ccc(O)c(O)c1)O[C@@H]1C[C@](O)(C(=O)O)C[C@@H](O)[C@H]1O [Chlorogenic acid] | 236
